FYI, the data here is from patent US20220098203A1.

- Test system: HCT116 MTAP-/-
- Test description: Inhibition of cellular proliferation (Cell Titer Glo), HCT116 MTAP-/-
- Format: cell-based, human
- Measurement conditions: Homo sapiens, HCT-116, 96 h, Table 5a, 4 days, read-out: 4 Day Relative Growth Inhibition (MTAP −/−)
Below, each entry is listed alongside its reported IC50.

- Structure smiles string: "CCNc1ncc2c(n1)N(c1ccc(OC(F)F)cc1)C(=O)N(c1ccc3nn(C)cc3c1)C2"
  IC50: "100 to 1000 nM"
- Structure smiles string: "[2H]C([2H])([2H])Oc1ccc(N2C(=O)N(c3ccc4nn(C)cc4c3)Cc3cnc(NCC(F)F)nc32)cc1"
  IC50: "100 to 1000 nM"
- Structure smiles string: "COc1ccc(N2Cc3cnc(NCC(F)(F)F)nc3N(c3ccc(OC)nc3)C2=O)cc1"
  IC50: "> 1000 nM"
- Structure smiles string: "[2H]C([2H])([2H])Oc1ccc(N2C(=O)N(c3ccc4nn(C)cc4c3)Cc3cnc(NCC)nc32)cc1"
  IC50: "100 to 1000 nM"

###

Below, each entry is listed alongside its reported pIC50.
- Measured on: MAT2A homodimer (Homo sapiens, UniProt P31153)
- Construct: inferred from the Ni sepharose purification and imidazole elution; made in house; host or cells: SF9 insect cells, recombinant baculovirus (Bac to Bac, pFASTBAC1)
- Sequence (P31153 whole entry): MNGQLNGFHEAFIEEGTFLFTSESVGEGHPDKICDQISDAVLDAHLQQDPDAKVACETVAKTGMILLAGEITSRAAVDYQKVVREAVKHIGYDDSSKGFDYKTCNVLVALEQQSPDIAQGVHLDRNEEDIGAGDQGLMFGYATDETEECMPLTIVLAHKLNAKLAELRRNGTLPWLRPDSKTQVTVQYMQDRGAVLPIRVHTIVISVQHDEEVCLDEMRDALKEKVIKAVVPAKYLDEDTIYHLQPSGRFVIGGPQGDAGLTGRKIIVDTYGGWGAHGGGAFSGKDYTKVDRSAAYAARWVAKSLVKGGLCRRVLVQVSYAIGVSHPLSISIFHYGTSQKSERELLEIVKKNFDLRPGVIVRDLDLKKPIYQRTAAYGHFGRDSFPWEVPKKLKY
- Test description: MAT2A biochemical assay (liberated phosphate, PiColorLock Gold)
- Measurement conditions: Table 5a; MAT2A biochemical assay; read-out: Enzyme Inhibition
pIC50: −log10 of the molar value.

- Structure smiles string: "Cc1ccc(N2C(=O)N(c3ccc4nn(C)cc4c3)Cc3cnc(NCC(F)(F)F)nc32)cn1"
  pIC50: "> 7.00"
- Structure smiles string: "COc1ccc(N2C(=O)N(c3ccc4nn(C)cc4c3)Cc3c(OC)nc(NCC(F)(F)F)nc32)cc1"
  pIC50: "> 7.00"
- Structure smiles string: "COc1ccc(N2Cc3ccc(NCC(F)(F)F)nc3N(c3ccc(Cl)cc3)C2=O)cc1"
  pIC50: "6.00 to 7.00"
- Structure smiles string: "Cn1cc2cc(N3Cc4cc(Cl)c(OCC(F)F)cc4N(c4ccc(OC(F)F)cc4)C3=O)ccc2n1"
  pIC50: "6.00 to 7.00"
- Structure smiles string: "CCOc1cnc2c(c1)N(c1ccc(OC(F)F)cc1)C(=O)N(c1ccc3nn(C)cc3c1)C2"
  pIC50: "> 7.00"
- Structure smiles string: "COc1ccc(N2Cc3cnc(NCC(F)(F)F)nc3N(c3ccc(C(N)=O)cc3)C2=O)cc1"
  pIC50: "6.00 to 7.00"
- Structure smiles string: "[2H]C([2H])([2H])Oc1ccc(N2C(=O)N(c3ccc4nn(C)c(OC)c4c3)Cc3ccc(OCC(F)F)nc32)cc1"
  pIC50: "> 7.00"
- Structure smiles string: "CCOc1cc2c(cn1)CN(c1ccc3nn(C)cc3c1)C(=O)N2c1ccc(OC(F)F)cc1"
  pIC50: "6.00 to 7.00"
- Structure smiles string: "Cn1cc2cc(N3Cc4ccc(OCC(F)F)nc4N(c4ccc5nscc5c4)C3=O)ccc2n1"
  pIC50: "> 7.00"
- Structure smiles string: "O=C1N(c2ccc3ncsc3c2)Cc2ccc(OCC(F)F)nc2N1c1ccc(Br)cc1"
  pIC50: "> 7.00"
- Structure smiles string: "[2H]C([2H])([2H])Oc1ccc(N2C(=O)N(c3ccc4nn(C)cc4c3)Cc3c(NC)nc(NCC(F)(F)F)nc32)cc1"
  pIC50: "> 7.00"
- Structure smiles string: "CCOc1ccc2c(n1)N(c1ccc(OC(F)F)cc1)C(=O)N(c1ccn3nccc3c1)C2"
  pIC50: "> 7.00"
- Structure smiles string: "CCOc1ccc2c(n1)N(c1ccc(-c3nnc[nH]3)cc1)C(=O)N(c1ccc3nn(C)cc3c1)C2"
  pIC50: "> 7.00"
- Structure smiles string: "Cn1cc2cc(N3Cc4ccc(OCC(F)F)nc4N(c4ccc(OC(F)F)cc4)C3=O)ccc2n1"
  pIC50: "> 7.00"
- Structure smiles string: "O=C1N(c2ccc3c(c2)OCCO3)Cc2cnc(NCC(F)(F)F)nc2N1c1ccc(-c2nc[nH]n2)cc1"
  pIC50: "> 7.00"
- Structure smiles string: "[2H]C([2H])([2H])Oc1ccc(N2C(=O)N(c3ccc4nc(OC)n(C)c4c3)Cc3ccc(OCC(F)F)nc32)cc1"
  pIC50: "> 7.00"
- Structure smiles string: "Cn1cc2cc(N3Cc4ncc(OCC(F)F)nc4N(c4ccc(OC(F)F)cc4)C3=O)ccc2n1"
  pIC50: "> 7.00"
- Structure smiles string: "COc1ccc(N2Cc3cnc(NCC(F)(F)F)nc3N(c3ccc(OC(F)(F)F)cc3)C2=O)cc1"
  pIC50: "6.00 to 7.00"
- Structure smiles string: "COc1ccc(N2Cc3ccc(NCC(F)(F)F)nc3N(c3ccc(OC(F)F)cc3)C2=O)cc1"
  pIC50: "> 7.00"
- Structure smiles string: "COc1ccc(N2Cc3cnc(NCC(F)(F)F)nc3N(c3ccc(CO)cc3)C2=O)cc1"
  pIC50: "6.00 to 7.00"
- Structure smiles string: "[2H]C([2H])([2H])Oc1ccc(N2C(=O)N(c3ccc4nn(CCC(F)(F)F)cc4c3)Cc3ccc(OCC(F)F)nc32)cc1"
  pIC50: "> 7.00"
- Structure smiles string: "COc1ccc(N2C(=O)N(c3ccc4nn(C)cc4c3)Cc3ccc(N(C)C)nc32)cc1"
  pIC50: "6.00 to 7.00"
- Structure smiles string: "COc1ccc(N2Cc3cnc(NCC(F)(F)F)nc3N(c3ccc(O)cc3)C2=O)cc1"
  pIC50: "6.00 to 7.00"
- Structure smiles string: "COc1ccc(N2C(=O)N(c3ccc4nn(C)cc4c3)Cc3ccc(N4CCCC4)nc32)cc1"
  pIC50: "6.00 to 7.00"
- Structure smiles string: "CCOc1ccc2c(n1)N(c1ccc(OC)cc1)C(=O)N(c1ccc3ncn(C)c3c1)C2"
  pIC50: "> 7.00"
- Structure smiles string: "COc1ccc(N2C(=O)N(c3ccncc3)Cc3cnc(NCC(F)(F)F)nc32)cc1"
  pIC50: "> 7.00"
- Structure smiles string: "O=C1N(c2ccc3ncsc3c2)Cc2cnc(NCC(F)(F)F)nc2N1c1ccc(-c2nc[nH]n2)cc1"
  pIC50: "> 7.00"
- Structure smiles string: "COc1ccc(N2C(=O)N(c3ccc4ncn(C)c4c3)Cc3ccc(OCC(F)F)nc32)cc1"
  pIC50: "> 7.00"
- Structure smiles string: "[2H]C([2H])([2H])Oc1ccc(N2C(=O)N(c3ccc4nc(C)n(C)c4c3)Cc3cnc(NCC(F)(F)F)nc32)cc1"
  pIC50: "> 7.00"
- Structure smiles string: "COc1ccc(N2Cc3cnc(NCC(F)(F)F)nc3N(c3cccc(OC)c3)C2=O)cc1"
  pIC50: "6.00 to 7.00"

###

Below, each entry is listed alongside its reported IC50.
- System: HCT116 MTAP-/-
- Test description: Inhibition of cellular proliferation (Cell Titer Glo), HCT116 MTAP-/-
- Assay type: cell-based, human
- Measurement conditions: Homo sapiens, HCT-116, 96 h, Table 5a, 4 days, read-out: 4 Day Relative Growth Inhibition (MTAP −/−)
Assay metric: IC50

- Structure smiles string: "CCOc1ccc2c(n1)N(c1ccc(CF)nc1)C(=O)N(c1ccc3nn(C)cc3c1)C2"
  Assay metric: "IC50"
  Result: "< 100 nM"
- Structure smiles string: "CCOc1ccc2c(n1)N(c1ccc(OC)nc1)C(=O)N(c1ccc3nn(C)cc3c1)C2"
  Assay metric: "IC50"
  Result: "100 to 1000 nM"
- Structure smiles string: "[2H]C([2H])([2H])Oc1ccc(N2C(=O)N(c3ccc4nc(OC)n(C)c4c3)Cc3ccc(OCC(F)F)nc32)cc1"
  Assay metric: "IC50"
  Result: "100 to 1000 nM"
- Structure smiles string: "[2H]C([2H])([2H])Oc1ccc(N2C(=O)N(c3ccc4ncn(C)c4c3)Cc3ccc(OCC(F)F)nc32)cc1"
  Assay metric: "IC50"
  Result: "< 100 nM"
- Structure smiles string: "COc1ccc(N2Cc3cnc(NCC(F)(F)F)nc3N(c3ccc(CCO)cc3)C2=O)cc1"
  Assay metric: "IC50"
  Result: "100 to 1000 nM"
- Structure smiles string: "Cn1cc2cc(N3Cc4ccc(NCC(F)(F)F)nc4N(c4ccc(OC(F)F)cc4)C3=O)ccc2n1"
  Assay metric: "IC50"
  Result: "< 100 nM"
- Structure smiles string: "COc1ccc(N2C(=O)N(c3ccc4ncccc4c3)Cc3cnc(NCC(F)(F)F)nc32)cc1"
  Assay metric: "IC50"
  Result: "100 to 1000 nM"
